System: PRKCD
Conditions: concentration: 1 μM, replicates: in singlicate; n = 1
Could you please report measured %Inh for the items listed next?
The reply should consist of the numeric value with the unit placed after it.

Some compounds with known %Inh results, for comparison:
[ask] For COc1cc2nccc(Nc3cccc(Oc4ccccc4)c3)c2cc1OC.Cl [GW284543] , write its %Inh.
[reply] 5%

[ask] For COc1cc(OC)cc(-c2cc3cnc(N)nc3nc2NC(=O)NC(C)(C)C)c1 , write its %Inh.
[reply] 0%

[ask] For COc1cc2ncn(-c3cc(OCc4ccc(S(C)(=O)=O)cc4)c(C(N)=O)s3)c2cc1OC [GW869979] , write its %Inh.
[reply] 0%

Continuing:
[ask] For COC(=O)c1c(-c2ccccc2)c2cc(Br)ccc2c(=O)n1Cc1ccc(S(C)(=O)=O)cc1 , write its %Inh.
[reply] 0%

* * *

Test system: PKN1
Settings: concentration: 1 μM, replicates: in singlicate; n = 1
Could you please report measured %Inh for the items listed next?
One number for each entry, in %.

Some compounds with known %Inh results, for comparison:
[ask] For Cc1nnc(-c2ccc3ncn(-c4ccc(S(C)=O)cc4)c3c2)o1 (stereo not drawn) , write its %Inh.
[reply] 0

[ask] For COc1cccc(C2=C(N(C)c3ccccc3)C(=O)NC2=O)c1 [SB-334865] , write its %Inh.
[reply] 0

[ask] For COc1cc(Nc2nccc(N3CCC(NC(=O)C4COc5ccccc5O4)C3)n2)cc(OC)c1OC (stereo not drawn) [GSK1379761] , write its %Inh.
[reply] 0

[ask] For O=C(Nc1ccc2c(c1)OCO2)NC1CCN(c2ccnc(NCc3ccc(F)cc3)n2)CC1 [GSK1379859] , write its %Inh.
[reply] 0

[ask] For OCCCNc1nccc(-c2c(-c3cccc(C(F)(F)F)c3)nn3cc(C(F)(F)F)ccc23)n1 [GW630813] , write its %Inh.
[reply] 0

For every record below, what is its %Inh?
1. CCC(=O)c1c(-c2ccccc2)c2cc(Cl)ccc2c(=O)n1Cc1ccc(C(=O)O)cc1
2. CCC(=O)c1c(-c2ccccc2)c2cc(Cl)ccc2c(=O)n1Cc1cc(S(C)(=O)=O)n(CC(N)=O)n1
3. O=C(Nc1n[nH]c2nc(-c3ccccc3)c(Br)cc12)C1CC1 [SB-708998]
4. CCc1ccc(-c2ccc3c(c2)-c2nn(C)cc2S(=O)(=O)N3C)cc1

[reply]
0
1
21
0

* * *

Parameter 'readout' = pKd; parameter 'system' = KIT.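 Note: kd values determined as follow-up on hits from a single-replicate KINOMEscan panel screen.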
Numbers only, as −log10 of the molar value.

[ask] For CCCNC(=O)Nc1ccc(Oc2ncnc3ccn(C)c23)cc1 , write its pKd.
[reply] 7.17

[ask] For Nc1n[nH]c2ncc(-c3ccccc3)cc12 , write its pKd.
[reply] 7.04

For every record below, what is its pKd?
1. COc1cc2nccc(Nc3ccc(OCc4ccc(NC(C)=O)cc4)cc3)c2cc1OC.Cl
2. COc1ccc(-n2cnc3c(N)ncnc32)cc1

[reply]
[8.13, 6.70]

* * *

Test system: MEK5
Construct: gene MAP2K5
Details: concentration: 1 μM, replicates: in singlicate; n = 1
Could you please report measured %Inh for the items listed next?

Some molecules with known %Inh results, for comparison:
[ask] For CCn1c(-c2ccoc2)nc2cnccc21 [SB-733887] , write its %Inh.
[reply] 38%

[ask] For COc1cc(Nc2nccc(N3CCC(NC(=O)C4COc5ccccc5O4)C3)n2)cc(OC)c1OC (stereo not shown) [GSK1379761] , write its %Inh.
[reply] 97.2%

For every record below, what is its %Inh?
1. CC(C)(C)c1ccc(C(=O)Nc2cn3cc(-c4ccccc4)ccc3n2)cc1
2. FC(F)(F)c1ccc(-c2ncn(CCCN3CCOCC3)c2-c2ccncc2)cc1 [SB-217780]
3. O=C(Nc1ccc2c(c1)OCO2)NC1CCN(c2ccnc(NCc3ccc(F)cc3)n2)CC1 [GSK1379859]
4. Nc1nc(-c2ccccc2F)c(-c2ccnc3ccccc23)s1 [GW560459]

[reply]
1. 75%
2. 33%
3. 8%
4. 50%

* * *

Test system: LKB1
Construct: gene STK11
Conditions: concentration: 1 μM, replicates: in singlicate; n = 1
metric: %Inh
The reply should consist of the numeric value with the unit placed after it.

Some compounds with known %Inh results, for comparison:
[ask] For CN(C)c1cc(-c2ccc3c(N)n[nH]c3c2)nc(N)n1 , write its %Inh.
[reply] 0%

[ask] For C[C@@H]1CC[C@H](C(=O)NC2CCCCC2)CN1c1cc(-c2ccc3c(N)n[nH]c3c2)nc(N)n1 , write its %Inh.
[reply] 23%

[ask] For OCCCNc1nccc(-c2c(-c3cccc(C(F)(F)F)c3)nn3cc(C(F)(F)F)ccc23)n1 , write its %Inh.
[reply] 16%

For every record below, what is its %Inh?
1. COc1ccc(-c2cc3c(C)nc(N)nc3n([C@H]3CC[C@H](O)CC3)c2=O)cn1
2. COc1ccc(-n2cnc3c(N)ncnc32)cc1
3. Cl.c1ccc(Cn2cnc3cc(Nc4ncnc5ccccc45)ccc32)cc1

[reply]
["0%", "0%", "0%"]

For every record below, what is its %Inh?
1. O=C(NCc1cccs1)c1cc(C(=O)c2c(Cl)cccc2Cl)c[nH]1
2. Cc1cccc(-c2nc(Nc3ccc4c(cnn4C)c3)c3ccccc3n2)n1
3. COc1cc(Nc2nccc(N3CCC(NC(=O)C(C)c4ccc(Cl)cc4)C3)n2)cc(OC)c1OC (stereo not shown)
4. CN1C(=O)C(Nc2ccccc2)=C(c2ccccc2)C1=O
5. CCCNC(=O)Nc1ccc(Oc2ncnc3ccn(C)c23)cc1
6. CCn1c(-c2nonc2N)nc2ccccc21

[reply]
1: 49%; 2: 48%; 3: 7%; 4: 13%; 5: 9%; 6: 0%

[ask] For Cc1cc(Nc2nc(-c3cccc(C)n3)nc3ccccc23)ccn1 , write its %Inh.
[reply] 0%

* * *

Test system: DAPK1
Conditions: concentration: 1 μM, replicates: in singlicate; n = 1
Could you please report measured %Inh for the items listed next?
Give bare numbers, in %.

Some compounds with known %Inh results, for comparison:
[ask] For COc1cc(Nc2nccc(N3CCC(NC(=O)C(C)c4ccc(Cl)cc4)C3)n2)cc(OC)c1OC (stereo not shown) , write its %Inh.
[reply] 0

[ask] For CCC(=O)c1c(-c2ccccc2)c2cc(Cl)ccc2c(=O)n1Cc1cc(C(=O)NC2CC2)n(C)n1 , write its %Inh.
[reply] 14

[ask] For CCS(=O)c1ccc(-c2coc3ccc(-c4nnc(C)o4)cc23)cc1 (stereo not shown) , write its %Inh.
[reply] 14

Here is the next item to consider.
[ask] For Nc1nccc2scc(-c3ccc4c(c3)CCN4C(=O)Cc3ccccc3)c12 , write its %Inh.
[reply] 12

* * *

Could you please report measured %Inh for the items listed next?
Tested on: NEK4
Conditions: concentration: 1 μM, replicates: in singlicate; n = 1
Answers are plain numbers, in %.

Some compounds with known %Inh results, for comparison:
[ask] Write %Inh of COc1cc(Nc2ccnc3ccc(C(F)(F)F)cc23)cc(OC)c1OC ; system used: NEK4
[reply] 5

[ask] Write %Inh of COc1ccc(-n2cnc3c(N)ncnc32)cc1 ; system used: NEK4
[reply] 0

[ask] Write %Inh of COc1cc2ncn(-c3cc(OCCCc4ccccc4)c(C(N)=O)s3)c2cc1OC ; system used: NEK4
[reply] 0

[ask] Write %Inh of O=c1cc(N2CCOCC2)nc2n(Cc3ccc(F)c(Cl)c3)ccn12 ; system used: NEK4
[reply] 0

Continuing:
[ask] Write %Inh of CCC(=O)c1c(-c2ccccc2)c2cc(Cl)ccc2c(=O)n1Cc1cc(S(C)(=O)=O)n(CC(F)F)n1 ; system used: NEK4
[reply] 0

* * *

Could you please report measured %Inh for the items listed next?
System: TYRO3
Settings: concentration: 1 μM, replicates: in singlicate; n = 1
One number for each entry, in %.

Some compounds with known %Inh results, for comparison:
[ask] For COc1cc(Nc2nccc(N3CCC(NC(=O)C4COc5ccccc5O4)C3)n2)cc(OC)c1OC (stereo not drawn) , write its %Inh.
[reply] 0

[ask] For O=C(NCc1cccs1)c1cc(C(=O)c2c(Cl)cccc2Cl)c[nH]1 , write its %Inh.
[reply] 0

[ask] For Cc1ccc(-c2ccc3c(ccc4sc5c(c43)NC[C@@H](C)N=C5N(C)C)n2)cn1 , write its %Inh.
[reply] 0

[ask] For CN1C(=O)C(Nc2cc(Cl)c(O)c(Cl)c2)=C(c2ccc(Cl)cc2)C1=O , write its %Inh.
[reply] 0

[ask] For O=C(Nc1ccc2c(c1)OCO2)NC1CCN(c2ccnc(NCc3ccc(F)cc3)n2)CC1 , write its %Inh.
[reply] 0

For every record below, what is its %Inh?
1. Cc1cccc(-c2cc(-c3c[nH]nc3-c3ccccn3)ccn2)c1
2. COc1ccc(-c2cc3c(C)nc(N)nc3n([C@H]3CC[C@H](O)CC3)c2=O)cn1
3. COc1cc2nccc(Nc3ccc(OCc4ccc(NC(C)=O)cc4)cc3)c2cc1OC.Cl

[reply]
1. 0
2. 0
3. 0

The measurements presented in this section are drawn from paper PMC5540273.
